target: UniProt:O43614; experiment: FLIPR Ca2+ Flux Assay, orexin-2 receptor (hOX2R FLIPR); conditions: CHO cells expressing the human orexin-2 receptor; agonist 70 pM Ala-6,12 human orexin-A
Below, each entry is listed alongside its reported IC50.
Write the value in nM as a bare number.

Solved cases (3 shown):
compound_structure_string	units_text	IC50
C[C@@H]1CC[C@@H](n2ncc(C(C)(C)O)n2)CN1C(=O)c1cccnc1OCC(F)F	nM	14.3
C[C@@H]1CC[C@@H](n2ncc(C(C)(C)O)n2)CN1C(=O)c1nccnc1-c1ccccn1	nM	622
C[C@@H]1CC[C@@H](n2ncc(C(C)(C)O)n2)CN1C(=O)c1cccnc1OC(F)F	nM	51.7

Incoming: Determine its reported IC50: C[C@@H]1CC[C@@H](n2cc(C(C)(C)O)cn2)CN1C(=O)c1nccnc1-n1nccn1
Outgoing: 479

Incoming: Determine its reported IC50: COC(=O)c1ccccc1C(=O)N1C[C@H](n2ncc(C(C)(C)O)n2)CC[C@H]1C
Outgoing: 24.6

Incoming: Determine its reported IC50: C[C@@H]1CC[C@@H](n2ncc(C(C)(C)O)n2)CN1C(=O)c1ccccc1[C@@H]1CC1(F)F
Outgoing: 8.5

Incoming: Determine its reported IC50: COC(=O)c1ncccc1C(=O)N1C[C@H](n2ncc(C(C)(C)O)n2)CC[C@H]1C
Outgoing: 1780

Incoming: Determine its reported IC50: C[C@@H]1CC[C@@H](n2ncc(C(C)(C)O)n2)CN1C(=O)c1nccnc1-n1cccn1
Outgoing: 109

Incoming: Determine its reported IC50: C[C@@H]1CC[C@@H](n2ncc(C(C)(C)O)n2)CN1C(=O)c1ccccc1OC(F)(F)F
Outgoing: 12.1

====

Below, each entry is listed alongside its reported IC50.
target: hOXIR (orexin-1 receptor) (Homo sapiens, UniProt O43613); test: FLIPR Ca2+ Flux Assay, orexin-1 receptor (hOXIR FLIPR); conditions: CHO cells expressing the orexin-1 receptor (method text: rat; table head: hOXIR); agonist 70 pM Ala-6,12 human orexin-A
Write the value in µM as a bare number.

molecule	IC50 / µM
C[C@@H]1CC[C@@H](n2cc(C(C)(C)O)cn2)CN1C(=O)c1ccccc1SC(F)(F)F [Example 88]	7.93

Here's the next entry for you.
Incoming: Determine its reported IC50: CCOc1ccccc1C(=O)N1C[C@H](n2nc(C)c(C(C)(C)O)n2)CC[C@H]1C [Example 69]
Outgoing: 1.95

====

biological target: human orexin-2 receptor (Homo sapiens (Human), UniProt O43614); assay: FLIPR Ca2+ Flux Assay, orexin-2 receptor (hOX2R FLIPR); details: CHO cells expressing the human orexin-2 receptor; agonist 70 pM Ala-6,12 human orexin-A
Sequence (O43614 whole entry): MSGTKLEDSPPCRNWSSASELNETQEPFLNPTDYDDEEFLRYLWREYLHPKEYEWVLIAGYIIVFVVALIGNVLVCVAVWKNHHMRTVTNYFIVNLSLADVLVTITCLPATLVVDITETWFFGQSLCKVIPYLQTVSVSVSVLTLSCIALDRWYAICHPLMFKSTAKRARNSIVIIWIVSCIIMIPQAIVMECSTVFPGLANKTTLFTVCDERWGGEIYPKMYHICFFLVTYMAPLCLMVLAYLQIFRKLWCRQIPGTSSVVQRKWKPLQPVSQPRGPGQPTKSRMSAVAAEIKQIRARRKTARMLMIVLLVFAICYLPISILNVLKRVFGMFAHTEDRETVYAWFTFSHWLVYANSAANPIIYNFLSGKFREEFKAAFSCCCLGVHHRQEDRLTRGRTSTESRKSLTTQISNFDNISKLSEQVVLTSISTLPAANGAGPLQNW
readout_kind: pIC50
Remember the convention: pIC50 equals -log10 of concentration in molar.

Solved cases (3 shown):
molecule	experimental_system	pIC50
CC(C)Oc1ccccc1C(=O)N1C[C@H](n2ncc(C(C)(C)O)n2)CC[C@H]1C [Example 17]	human orexin-2 receptor (Homo sapiens (Human), UniProt O43614)	7.79
CC(C)c1ccccc1C(=O)N1C[C@H](n2cc(C(C)(C)O)cn2)CC[C@H]1C [Example 82]	human orexin-2 receptor (Homo sapiens (Human), UniProt O43614)	6.46
Cc1cccc(-n2nccn2)c1C(=O)N1C[C@H](n2ncc(C(C)(C)O)n2)CC[C@H]1C [Example 53]	human orexin-2 receptor (Homo sapiens (Human), UniProt O43614)	7.51

Incoming: Determine its reported pIC50: Cc1nc(-c2c(F)cccc2C(=O)N2C[C@H](n3ncc(C(C)(C)O)n3)CC[C@H]2C)no1 [Example 37]
Outgoing: 7.12

Incoming: Determine its reported pIC50: COCc1ccccc1C(=O)N1C[C@H](n2ncc(C(C)(C)O)n2)CC[C@H]1C [Example 56]
Outgoing: 6.51

Incoming: Determine its reported pIC50: C[C@@H]1CC[C@@H](n2ncc(C(C)(C)O)n2)CN1C(=O)c1ccsc1-n1nccn1 [Example 33]
Outgoing: 7.74

Incoming: Determine its reported pIC50: Cc1cnn(-c2ncccc2C(=O)N2C[C@H](n3ncc(C(C)(C)O)n3)CC[C@H]2C)c1 [Example 10]
Outgoing: 7.59

Incoming: Determine its reported pIC50: C[C@@H]1CC[C@@H](n2ncc(C(C)(C)O)n2)CN1C(=O)c1ccccc1[C@H]1CC1(F)F [Example 23]
Outgoing: 7.33

Incoming: Determine its reported pIC50: C[C@@H]1CC[C@@H](n2ncc(C(C)(C)O)n2)CN1C(=O)c1ccccc1OCC(F)F [Example 18]
Outgoing: 7.82

Incoming: Determine its reported pIC50: C[C@@H]1CC[C@@H](n2ncc(C(C)(C)O)n2)CN1C(=O)c1ccccc1-n1nccn1 [Example 25]
Outgoing: 8.12

Incoming: Determine its reported pIC50: C[C@@H]1CC[C@@H](n2cc(C(C)(C)O)cn2)CN1C(=O)c1ccccc1-n1cccn1 [Example 93]
Outgoing: 7.03

Incoming: Determine its reported pIC50: C[C@@H]1CC[C@@H](n2cc(C(C)(C)O)cn2)CN1C(=O)c1ccccc1[C@@H]1CC1(F)F [Example 85]
Outgoing: 8.03

Incoming: Determine its reported pIC50: C[C@@H]1CC[C@@H](n2ncc(C(C)(C)O)n2)CN1C(=O)c1cccc(F)c1-n1nccn1 [Example 31]
Outgoing: 7.44

Incoming: Determine its reported pIC50: C[C@@H]1CC[C@@H](n2cc(C(C)(C)O)cn2)CN1C(=O)c1ccccc1OCC(F)(F)F [Example 80]
Outgoing: 6.78

Incoming: Determine its reported pIC50: Cc1nn([C@@H]2CC[C@@H](C)N(C(=O)c3cccnc3OCC(F)F)C2)nc1C(C)(C)O [Example 64]
Outgoing: 8.06

Incoming: Determine its reported pIC50: Cc1ccc(C(=O)N2C[C@H](n3ncc(C(C)(C)O)n3)CC[C@H]2C)c(-n2nccn2)n1 [Example 55]
Outgoing: 6.65

Incoming: Determine its reported pIC50: Cc1nn([C@@H]2CC[C@@H](C)N(C(=O)c3ccccc3C3CC3)C2)nc1C(C)(C)O [Example 70]
Outgoing: 8.06

====

target: UniProtKB O43614; test: FLIPR Ca2+ Flux Assay, orexin-2 receptor (hOX2R FLIPR); details: CHO cells expressing the human orexin-2 receptor; agonist 70 pM Ala-6,12 human orexin-A
Below, each entry is listed alongside its reported pIC50.
Remember the convention: pIC50 equals -log10 of concentration in molar.

molecule	experimental_system	pIC50
COc1ccc(C(=O)N2C[C@H](n3cc(C(C)(C)O)cn3)CC[C@H]2C)c(C2CC2)n1	UniProtKB O43614	5.80
C[C@@H]1CC[C@@H](n2cc(C(C)(C)O)cn2)CN1C(=O)c1cccnc1-c1ccccc1	UniProtKB O43614	6.71
C[C@@H]1CC[C@@H](n2ncc(C(C)(C)O)n2)CN1C(=O)c1cccnc1OCC(F)(F)F	UniProtKB O43614	7.80
C[C@@H]1CC[C@@H](n2cc(C(C)(C)O)cn2)CN1C(=O)c1nccnc1-n1cccn1	UniProtKB O43614	6.57
C[C@@H]1CC[C@@H](n2cc([C@H](O)C(F)(F)F)cn2)CN1C(=O)c1ccccc1-n1nccn1	UniProtKB O43614	6.99

Here's the next entry for you.
Incoming: Determine its reported pIC50: Cc1nn([C@@H]2CC[C@@H](C)N(C(=O)c3ccccc3-n3nccn3)C2)nc1C(C)(C)O
Outgoing: 7.90

====

Below, each entry is listed alongside its reported IC50.
biological target: hOXIR (orexin-1 receptor) (Homo sapiens); assay: FLIPR Ca2+ Flux Assay, orexin-1 receptor (hOXIR FLIPR); assay type: cell-based; conditions: CHO cells expressing the orexin-1 receptor (method text: rat; table head: hOXIR); agonist 70 pM Ala-6,12 human orexin-A

Solved cases (5 shown):
compound_structure_string	IC50
C[C@@H]1CC[C@@H](n2cc(C(C)(C)O)cn2)CN1C(=O)c1ccccc1C1CCC1	3.29 µM
Cc1nn([C@@H]2CC[C@@H](C)N(C(=O)c3ccccc3-n3nccn3)C2)cc1C(C)(C)O	0.339 µM
CCOc1ncccc1C(=O)N1C[C@H](n2nc(C)c(C(C)(C)O)n2)CC[C@H]1C	2.93 µM
CC(C)c1ccccc1C(=O)N1C[C@H](n2ncc(C(C)(C)O)n2)CC[C@H]1C	> 10 µM
C[C@@H]1CC[C@@H](n2ncc(C(C)(C)O)n2)CN1C(=O)c1cccnc1C1CC1	> 10 µM

Here's the next entry for you.
Incoming: Determine its reported IC50: COc1ccc(C(=O)N2C[C@H](n3ncc(C(C)(C)O)n3)CC[C@H]2C)c(-n2nccn2)n1
Outgoing: > 10 µM

====

Below, each entry is listed alongside its reported IC50.
target: hOXIR (orexin-1 receptor) (Homo sapiens); test: FLIPR Ca2+ Flux Assay, orexin-1 receptor (hOXIR FLIPR); settings: CHO cells expressing the orexin-1 receptor (method text: rat; table head: hOXIR); agonist 70 pM Ala-6,12 human orexin-A

compound	measurement
Cc1nn([C@@H]2CC[C@@H](C)N(C(=O)c3ccccc3-n3nccn3)C2)nc1C(C)(C)O [Example 62]	1250 nM
Cc1nc(-c2ccccc2C(=O)N2C[C@H](n3ncc(C(C)(C)O)n3)CC[C@H]2C)no1 [Example 47]	> 10000 nM

Here's the next entry for you.
Incoming: Determine its reported IC50: C[C@@H]1CC[C@@H](n2ncc(C(C)(C)O)n2)CN1C(=O)c1ccccc1OC(F)(F)F [Example 19]
Outgoing: 2800 nM
